molecular target: CFTR (Homo sapiens, UniProt P13569, DEL508-508); construct: human bronchial epithelial (HBE) cells derived from CF subjects heterozygous for F508del; endogenous in cells; assay: HBE assay: Ussing chamber assay of CFTR-mediated short-circuit currents (F508del/MF-HBE, with 1 μM Ivacaftor); conditions: F508del/MF-HBE cells; range of concentrations with 1 μM Ivacaftor, 18-24 hours, 20% human serum
Sequence (P13569 with tags, fused parts or gaps DEL508-508): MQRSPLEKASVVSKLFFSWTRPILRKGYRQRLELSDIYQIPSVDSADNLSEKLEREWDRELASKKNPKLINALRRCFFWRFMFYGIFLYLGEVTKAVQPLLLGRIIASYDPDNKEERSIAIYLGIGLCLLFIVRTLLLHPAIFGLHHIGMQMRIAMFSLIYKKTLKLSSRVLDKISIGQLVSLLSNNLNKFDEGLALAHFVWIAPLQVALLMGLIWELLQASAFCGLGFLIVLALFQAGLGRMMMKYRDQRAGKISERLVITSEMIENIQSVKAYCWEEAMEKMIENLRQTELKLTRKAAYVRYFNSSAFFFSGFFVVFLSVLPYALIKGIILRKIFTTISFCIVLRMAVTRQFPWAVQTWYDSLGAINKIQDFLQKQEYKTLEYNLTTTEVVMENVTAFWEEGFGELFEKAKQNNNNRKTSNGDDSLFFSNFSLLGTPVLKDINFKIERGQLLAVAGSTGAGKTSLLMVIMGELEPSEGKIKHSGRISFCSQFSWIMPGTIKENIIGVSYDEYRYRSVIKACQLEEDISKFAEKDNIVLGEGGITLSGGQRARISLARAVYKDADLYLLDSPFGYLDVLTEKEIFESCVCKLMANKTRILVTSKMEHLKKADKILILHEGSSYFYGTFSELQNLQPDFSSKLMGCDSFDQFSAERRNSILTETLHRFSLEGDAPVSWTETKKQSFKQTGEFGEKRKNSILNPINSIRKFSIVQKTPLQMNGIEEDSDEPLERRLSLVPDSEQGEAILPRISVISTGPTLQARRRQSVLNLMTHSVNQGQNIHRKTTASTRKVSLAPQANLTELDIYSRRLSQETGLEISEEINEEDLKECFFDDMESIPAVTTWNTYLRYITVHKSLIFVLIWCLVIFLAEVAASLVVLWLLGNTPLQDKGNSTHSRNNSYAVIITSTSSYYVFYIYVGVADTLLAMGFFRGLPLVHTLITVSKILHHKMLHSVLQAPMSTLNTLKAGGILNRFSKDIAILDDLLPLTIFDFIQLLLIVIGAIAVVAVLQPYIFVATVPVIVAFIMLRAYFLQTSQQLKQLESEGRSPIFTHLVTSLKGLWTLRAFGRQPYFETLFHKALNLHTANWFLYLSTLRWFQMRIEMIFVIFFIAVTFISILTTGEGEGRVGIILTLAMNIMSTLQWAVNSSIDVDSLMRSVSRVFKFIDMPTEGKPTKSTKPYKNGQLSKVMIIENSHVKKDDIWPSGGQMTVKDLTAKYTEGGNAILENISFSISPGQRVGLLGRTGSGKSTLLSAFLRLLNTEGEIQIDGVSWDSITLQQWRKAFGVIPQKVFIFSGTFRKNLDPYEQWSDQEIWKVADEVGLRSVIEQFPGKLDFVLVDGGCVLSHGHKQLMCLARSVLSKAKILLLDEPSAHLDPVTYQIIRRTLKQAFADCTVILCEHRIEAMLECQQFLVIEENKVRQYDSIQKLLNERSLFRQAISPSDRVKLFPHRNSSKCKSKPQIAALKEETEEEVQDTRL
Recorded EC50 by entry
Assay Endpoint: EC50

Compound	Target	Reported Result
Cc1cccc(C)c1-c1cc2nc(n1)NS(=O)(=O)c1cccc(c1)C(=O)N(C1CC3(CCCN3C(=O)CO)C1)[C@H](CC(C)(C)C)CO2 (stereo in doubt) [Compound 206]	CFTR (Homo sapiens, UniProt P13569, DEL508-508)	< 1000 nM
Cc1cccc(C)c1-c1cc2nc(n1)NS(=O)(=O)c1cccc(c1)C(=O)N(c1cn[nH]c1)[C@H](CC(C)C)CO2	CFTR (Homo sapiens, UniProt P13569, DEL508-508)	3000 to 30000 nM
Cc1cccc(C)c1-c1cc2nc(n1)NS(=O)(=O)c1cccc(c1)C(=O)N(c1cnn(CC(N)=O)c1)[C@H](CC(C)(C)C)CO2	CFTR (Homo sapiens, UniProt P13569, DEL508-508)	1000 to 3000 nM
Cc1cccc(C)c1-c1cc2nc(n1)NS(=O)(=O)c1cccc(c1)C(=O)N(c1cnn(CC(=O)OC(C)(C)C)c1)[C@H](CC(C)(C)C)CO2	CFTR (Homo sapiens, UniProt P13569, DEL508-508)	< 1000 nM
Cc1cccc(C)c1-c1cc2nc(n1)NS(=O)(=O)c1cccc(c1)C(=O)N(c1cn[nH]c1)[C@H](CC(C)(C)C)CO2	CFTR (Homo sapiens, UniProt P13569, DEL508-508)	< 1000 nM
Cc1cccc(C)c1-c1cc2nc(n1)NS(=O)(=O)c1cccc(c1)C(=O)N(C1CC3(CCCN3C(=O)CO)C1)[C@H](CC(C)(C)C)CO2 (stereo in doubt) [Compound 205]	CFTR (Homo sapiens, UniProt P13569, DEL508-508)	< 1000 nM

* * *

target: CFTR (Homo sapiens, UniProt P13569); assay: Membrane Potential Dye, Enteroid Assay B; type: cell-based; conditions: Table 9, read-out: Ent. B EC50
Sequence (P13569 with tags, fused parts or gaps DEL508-508): as above
# EC50 values compiled below
Assay Endpoint: EC50

Molecule	Assay Endpoint	Reported Result
CC(=O)N[C@H]1C[C@@H](N2C(=O)c3cccc(c3)S(=O)(=O)Nc3nc(cc(-c4c(C)cccc4C)n3)OC[C@H]2CC(C)C)C1 [Compound 366]	EC50	< 1000 nM
[H][C@]1(N2C(=O)c3cccc(c3)S(=O)(=O)Nc3nc(cc(-c4c(C)cccc4C)n3)OC[C@H]2CC(C)C)C[C@@]2(C[C@H](N(C)CCOC)C2)C1 (stereo partly drawn) [Compound 286]	EC50	< 1000 nM
Cc1cccc(C)c1-c1cc2nc(n1)NS(=O)(=O)c1cccc(c1)C(=O)N(C1CC(NC3CCC(C)(C)CC3)C1)[C@H](CC(C)C)CO2 (stereo partly drawn) [Compound 70]	EC50	< 1000 nM

* * *

target: CFTR (Homo sapiens, UniProt P13569); experiment: Membrane Potential Dye, Enteroid Assay B; type: cell-based; settings: Table 10

Molecule	Ent. B Max Activity (%)
Cc1cccc(C)c1-c1cc2nc(n1)NS(=O)(=O)c1cccc(c1)C(=O)N(C1CC3(COC(=O)N3)C1)[C@H](CC(C)C)CO2 (some centres unmarked) [Compound 256]	++ (++ is 30-60%)
Cc1cccc(C)c1-c1cc2nc(n1)NS(=O)(=O)c1cccc(c1)C(=O)N(c1cnn(C)c1)[C@H](CC(C)(C)C)CO2	+++ (+++ is >60%)
[H][C@]1(N2C(=O)c3cccc(c3)S(=O)(=O)Nc3nc(cc(-c4c(C)cccc4C)n3)OC[C@H]2CCC(C)C)C[C@@]2(C[C@H](C(C)(C)O)C2)C1 (single isomer, unassigned) [Compound 4]	+++ (+++ is >60%)
CCC(=O)N1C[C@H]2C[C@@H](C1)[C@H]2N1C(=O)c2cccc(c2)S(=O)(=O)Nc2nc(cc(-c3c(C)cccc3C)n2)OC[C@H]1CC(C)(C)C	++ (++ is 30-60%)
Cc1cccc(C)c1-c1cc2nc(n1)NS(=O)(=O)c1cccc(c1)C(=O)N(C1CC(C)(OC(F)(F)F)C1)[C@H](CC(C)C)CO2 (some centres unmarked) [Compound 49]	++ (++ is 30-60%)
Cc1cccc(C)c1-c1cc2nc(n1)NS(=O)(=O)c1cccc(c1)C(=O)N(C1CC3(COC(=O)N3)C1)[C@H](CC(C)(C)C)CO2 (single isomer, unassigned) [Compound 176]	++ (++ is 30-60%)
Cc1cccc(C)c1-c1cc2nc(n1)NS(=O)(=O)c1cccc(c1)C(=O)N([C@H]1C[C@@H](NC34CC(CO)(C3)C4)C1)[C@H](CC(C)C)CO2 (stereo in doubt)	+++ (+++ is >60%)
Cc1cccc(C)c1-c1cc2nc(n1)NS(=O)(=O)c1cccc(c1)C(=O)N(C1Cc3ccccc3C1)[C@H](CC(C)(C)C)CO2	+++ (+++ is >60%)

* * *

target: CFTR (Homo sapiens, UniProt P13569); experiment: Membrane Potential Dye, Enteroid Assay B; format: cell-based; conditions: Table 10
Assay Endpoint: Ent. B Max Activity (%)

Compound	Assay Endpoint	Reported Result
Cc1cccc(C)c1-c1cc2nc(n1)NS(=O)(=O)c1cccc(c1)C(=O)N(C1CC3(CC(C(N)=O)C3)C1)[C@H](CC(C)(C)C)CO2 (stereo partly drawn) [Compound 233]	Ent. B Max Activity (%)	+++ (+++ is >60%)
Cc1cccc(C)c1-c1cc2nc(n1)NS(=O)(=O)c1cccc(c1)C(=O)N(C1CC(OC(=O)N(C)C)C1)[C@H](CC(C)C)CO2 (stereo partly drawn)	Ent. B Max Activity (%)	++ (++ is 30-60%)
Cc1cccc(C)c1-c1cc2nc(n1)NS(=O)(=O)c1cccc(c1)C(=O)N(C1CC3(COC(=O)N3)C1)[C@H](CC(C)C)CO2 (stereo partly drawn) [Compound 255]	Ent. B Max Activity (%)	++ (++ is 30-60%)
CCOC(=O)NC1CC2(C1)CC(N1C(=O)c3cccc(c3)S(=O)(=O)Nc3nc(cc(-c4c(C)cccc4C)n3)OC[C@H]1CC(C)(C)C)C2 (stereo partly drawn)	Ent. B Max Activity (%)	+++ (+++ is >60%)
CC(C)C[C@@H]1COc2cc(-c3c(F)cccc3C(F)(F)F)nc(n2)NS(=O)(=O)c2cccc(c2)C(=O)N1C1CC2(CC2)C1	Ent. B Max Activity (%)	++ (++ is 30-60%)
COCCn1cc(N2C(=O)c3cccc(c3)S(=O)(=O)Nc3nc(cc(-c4c(C)cccc4C)n3)OC[C@H]2CC(C)C)cn1	Ent. B Max Activity (%)	+++ (+++ is >60%)

* * *

target: CFTR (Homo sapiens, UniProt P13569); experiment: Membrane Potential Dye, Enteroid Assay B; format: cell-based; conditions: Table 10

Molecule	Ent. B Max Activity (%)
Cc1cccc(C)c1-c1cc2nc(n1)NS(=O)(=O)c1cccc(c1)C(=O)N([C@H]1C[C@@H](N3C[C@@H](C)CC3(C)C)C1)[C@H](CC(C)C)CO2	++ (++ is 30-60%)
COC(=O)N(C)C1CC2(C1)CC(N1C(=O)c3cccc(c3)S(=O)(=O)Nc3nc(cc(-c4c(C)cccc4C)n3)OC[C@H]1CC(C)(C)C)C2 (some centres unmarked)	++ (++ is 30-60%)
COCCn1cc(N2C(=O)c3cccc(c3)S(=O)(=O)Nc3nc(cc(-c4c(C)cccc4C)n3)OC[C@H]2CC(C)(C)C)cn1	+++ (+++ is >60%)
Cc1cccc(C)c1-c1cc2nc(n1)NS(=O)(=O)c1cccc(c1)C(=O)N(C1CC(CO)(C(C)(C)O)C1)[C@H](CC(C)(C)C)CO2 (single isomer, unassigned) [Compound 159]	+++ (+++ is >60%)
Cc1cccc(C)c1-c1cc2nc(n1)NS(=O)(=O)c1cccc(c1)C(=O)N([C@H]1C[C@@H](CC(C)(C)O)C1)[C@H](CC(C)(C)C)CO2 (single isomer, unassigned) [Compound 153]	+++ (+++ is >60%)
Cc1cccc(C)c1-c1cc2nc(n1)NS(=O)(=O)c1cccc(c1)C(=O)N(C1CC(N)C1)[C@H](CC(C)(C)C)CO2 (single isomer, unassigned) [Compound 166]	++ (++ is 30-60%)
CNC(=O)O[C@H]1C[C@@H](N2C(=O)c3cccc(c3)S(=O)(=O)Nc3nc(cc(-c4c(C)cccc4C)n3)OC[C@H]2CC(C)C)C1 (stereo in doubt)	++ (++ is 30-60%)
Cc1cccc(C)c1-c1cc2nc(n1)NS(=O)(=O)c1cc(n(C)n1)C(=O)N(C1CC3(C1)CC(C(C)(C)O)C3)[C@H](CC(C)(C)C)CO2 (some centres unmarked)	+++ (+++ is >60%)
[H][C@]1(N2C(=O)c3cccc(c3)S(=O)(=O)Nc3nc(cc(-c4c(C)cccc4C)n3)OC[C@H]2CC(C)(C)C)C[C@@]2(C[C@H](NC(=O)OC3CCC3)C2)C1 (stereo in doubt)	++ (++ is 30-60%)
Cc1cccc(C)c1-c1cc2nc(n1)NS(=O)(=O)c1cccc(c1)C(=O)N(C1CC3(COC(=O)N3C)C1)[C@H](CC(C)(C)C)CO2 (single isomer, unassigned) [Compound 177]	++ (++ is 30-60%)
Cc1cccc(C)c1-c1cc2nc(n1)NS(=O)(=O)c1cccc(c1)C(=O)N(C1CC3(C1)CC(C(C)(C)O)C3)[C@H](CCC(C)(C)C)CO2 (single isomer, unassigned) [Compound 8]	+++ (+++ is >60%)
